target entity: CDK1/Cyclin B1 (Homo sapiens (Human))
test name: CDK1/Cyclin B1 ADP-Glo Kinase Assay
stated conditions: 80 uM ATP
property label: IC50

Take a look at these entries with their results.
CS(=O)(=O)N1CCC(Nc2ncc3cccc(N4CCC5(CCC(F)(F)C5)C4)c3n2)CC1 (stereo not shown)
500 to 2000 nM
O=S(=O)(N1CCC(Nc2ncc3cc(C(F)F)cc(C4CC5(CCNC5)C4)c3n2)CC1)C1(C(F)F)CC1 (stereo not shown)
< 200 nM
CS(=O)(=O)N1Cc2ccc(Nc3ncc4cc(C(F)F)cc(N5CC6(C5)CN(C5CC5)C6)c4n3)cc2C1
< 200 nM
CS(=O)(=O)N1CCC(Nc2ncc3cc(C(F)F)cc(N4CC5(CCNCC5(F)F)C4)c3n2)CC1
< 200 nM
CC(=O)N1CCC2(CCC(c3cccc4cnc(NC5CCN(S(C)(=O)=O)CC5)nc34)C2)C1 (stereo not shown)
200 to 500 nM

Prompt line: Report IC50, nothing else, for this compound: Cn1cc(S(=O)(=O)N2CCC(Nc3ncc4cccc(N5CC(O)(C(F)F)C5)c4n3)CC2)cn1
Response line: < 200 nM

Prompt line: Report IC50, nothing else, for this compound: CS(=O)(=O)N1CCC(Nc2ncc3cccc(N4CC5CC(C4)O5)c3n2)CC1
Response line: 500 to 2000 nM

Prompt line: Report IC50, nothing else, for this compound: CS(=O)(=O)N1CCC(Nc2ncc3cc(C(F)F)cc(N4CC5(CCNC5)C4)c3n2)CC1
Response line: < 200 nM

Prompt line: Report IC50, nothing else, for this compound: CN1CCC2(C1)CN(c1cc(C(F)F)cc3cnc(NC4CCN(S(=O)(=O)C5CC5)CC4)nc13)C2
Response line: 200 to 500 nM

Prompt line: Report IC50, nothing else, for this compound: CN1C[C@@H]2C(Nc3ncc4cc(C(F)F)cc(N5CCC6(CCN(S(C)(=O)=O)C6)C5)c4n3)[C@@H]2C1 (stereo partly shown)
Response line: > 2000 nM

Prompt line: Report IC50, nothing else, for this compound: O=S(=O)(C1CC1)N1CCC(Nc2ncc3cc(C(F)F)cc(C4CC5(C4)CN(CC(F)F)C5)c3n2)CC1
Response line: < 200 nM

Prompt line: Report IC50, nothing else, for this compound: CN1CCN(C2CCN(c3cccc4cnc(NC5CCN(S(C)(=O)=O)CC5)nc34)C2)CC1 (stereo not shown)
Response line: > 2000 nM

Prompt line: Report IC50, nothing else, for this compound: O=S(=O)(C1CC1)N1CCC(Nc2ncc3cc(C(F)F)cc(N4CC5(CNCCO5)C4)c3n2)CC1
Response line: < 200 nM

Prompt line: Report IC50, nothing else, for this compound: CS(=O)(=O)N1CCC(Nc2ncc3cc(C(F)F)cc(N4CC(F)(F)C5(CNC5)C4)c3n2)CC1
Response line: < 200 nM

Prompt line: Report IC50, nothing else, for this compound: CS(=O)(=O)N1CCC(Nc2ncc3cccc(N4CCC5(COC5)C4)c3n2)CC1
Response line: 500 to 2000 nM

Prompt line: Report IC50, nothing else, for this compound: CC(=O)N1CCC2(CCN(c3c(F)ccc4cnc(NC5CCN(S(C)(=O)=O)CC5)nc34)C2)C1 (stereo not shown)
Response line: 500 to 2000 nM

Prompt line: Report IC50, nothing else, for this compound: O=S(=O)(CC1CCC1)N1CCC(Nc2ncc3cc(C(F)F)cc(N4CCC5(CNC5)C4)c3n2)CC1
Response line: 200 to 500 nM

---

target entity: CDK1/Cyclin B1 (Homo sapiens (Human), UniProt P06493)
Sequence (P06493 whole entry): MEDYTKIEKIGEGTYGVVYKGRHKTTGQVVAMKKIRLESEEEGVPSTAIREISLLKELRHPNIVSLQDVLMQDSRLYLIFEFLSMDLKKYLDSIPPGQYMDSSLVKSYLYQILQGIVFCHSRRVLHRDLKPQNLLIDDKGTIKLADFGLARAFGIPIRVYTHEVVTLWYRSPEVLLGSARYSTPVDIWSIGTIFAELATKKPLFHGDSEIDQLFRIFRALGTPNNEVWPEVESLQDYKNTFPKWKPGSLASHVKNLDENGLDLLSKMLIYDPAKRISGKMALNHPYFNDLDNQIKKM
Sequence (P14635 whole entry partner): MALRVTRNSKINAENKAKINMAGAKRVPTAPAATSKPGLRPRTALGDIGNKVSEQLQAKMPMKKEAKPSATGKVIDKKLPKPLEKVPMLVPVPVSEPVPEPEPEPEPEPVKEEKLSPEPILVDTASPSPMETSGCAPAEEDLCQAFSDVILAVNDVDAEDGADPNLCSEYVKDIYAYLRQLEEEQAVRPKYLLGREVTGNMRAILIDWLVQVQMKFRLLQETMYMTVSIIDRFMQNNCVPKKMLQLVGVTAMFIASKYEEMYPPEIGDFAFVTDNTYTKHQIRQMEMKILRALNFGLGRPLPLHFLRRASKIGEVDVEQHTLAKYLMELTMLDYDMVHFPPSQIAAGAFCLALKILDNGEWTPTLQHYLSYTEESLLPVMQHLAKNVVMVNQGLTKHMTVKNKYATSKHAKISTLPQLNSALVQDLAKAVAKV
test name: CDK1/Cyclin B1 ADP-Glo Kinase Assay
stated conditions: 80 uM ATP
property label: IC50

O=S(=O)(C1CC1)N1CCC(Nc2ncc3cc(C(F)F)cc(N4CC5(CCCNC5)C4)c3n2)CC1
< 200 nM
CN1CC2(CCN(c3cc(C(F)F)cc4cnc(NC5CCN(S(C)(=O)=O)CC5)nc34)C2)C1
200 to 500 nM
CC(=O)N1CCC2(CC1)CCN(c1cccc3cnc(NC4CCN(S(C)(=O)=O)CC4)nc13)C2
> 2000 nM

Proceeding to the next molecule to report its IC50.
Prompt line: Report value only: IC50, CDK1/Cyclin B1 (Homo sapiens (Human), UniProt P06493), O=S(=O)(N1CCC(Nc2ncc3cc(C(F)F)cc(N4CCC5(CNC5)C4)c3n2)CC1)C1(C(F)F)CC1
Response line: < 200 nM

---

System: OVCAR-3 cells
test name: Cell Growth Inhibition, OVCAR-3 (CellTiterGlo, 6 days)
Type: cell-based
stated conditions: Homo sapiens, 144 h; OVCAR-3, 6-day treatment, CellTiterGlo 2.0
pIC50: −log10 of the molar value.
Overview of reported pIC50 across a group of compounds:

CS(=O)(=O)N1CCC(Nc2ncc3cccc(N4CCC(C#N)(C5CC5)C4)c3n2)CC1 (centres unmarked)
< 5.70
CC1(S(=O)(=O)N2CCC(Nc3ncc4cc(C(F)F)cc(N5CC6(CCNC6)C5)c4n3)CC2)CC1
6.30 to 6.70
CS(=O)(=O)N1CCC(Nc2ncc3cccc(C4CC5(CCNC5)C4)c3n2)CC1 (centres unmarked)
6.30 to 6.70
CS(=O)(=O)N1CCC(Nc2ncc3cccc(N4CC5(CCS5(=O)=O)C4)c3n2)CC1
5.70 to 6.30
CS(=O)(=O)N1CCC(Nc2ncc3cccc(N4CCC5(C4)CS(=O)(=O)C5)c3n2)CC1
< 5.70

Prompt line: Report pIC50, nothing else, for this compound: CN1CC2(CC(n3cc(Nc4ncc5cc(C(F)F)cc(N6CCC(C#N)(C7CC7)C6)c5n4)cn3)C2)C1 (centres unmarked)
Response line: 5.70 to 6.30

Prompt line: Report pIC50, nothing else, for this compound: O=S(=O)(C1CC1)N1CCC(Nc2ncc3cc(C(F)F)cc(N4CC5(CNCCO5)C4)c3n2)CC1
Response line: 5.70 to 6.30

Prompt line: Report pIC50, nothing else, for this compound: CC(=O)N1CCC2(CCN(c3cc(C(F)F)cc4cnc(NC5CCN(S(C)(=O)=O)CC5)nc34)C2)C1 (centres unmarked)
Response line: < 5.70

Prompt line: Report pIC50, nothing else, for this compound: CS(=O)(=O)N1CCC(Nc2ncc3cccc(C4CC(O)(C(F)F)C4)c3n2)CC1 (centres unmarked)
Response line: 6.30 to 6.70

Prompt line: Report pIC50, nothing else, for this compound: CS(=O)(=O)N1CCC(Nc2ncc3cc(C(F)F)cc(C4CC5(CCN(C6COC6)C5)C4)c3n2)CC1 (centres unmarked)
Response line: 6.30 to 6.70

Prompt line: Report pIC50, nothing else, for this compound: Cn1cc(S(=O)(=O)N2CCC(Nc3ncc4cccc(N5CC(O)(C(F)F)C5)c4n3)CC2)cn1
Response line: 5.70 to 6.30

Prompt line: Report pIC50, nothing else, for this compound: CS(=O)(=O)N1CCC(Nc2ncc3cccc(N4CC5(CC(O)C5)C4)c3n2)CC1
Response line: 5.70 to 6.30

Prompt line: Report pIC50, nothing else, for this compound: O=S(=O)(C1CC1)N1CCC(Nc2ncc3cc(C(F)F)cc(N4CC5(C4)CN(C4CC4)C5)c3n2)CC1
Response line: < 5.70

Prompt line: Report pIC50, nothing else, for this compound: CS(=O)(=O)N1CCC(Nc2ncc3cccc(N4CCC4CO)c3n2)CC1 (centres unmarked)
Response line: < 5.70

Prompt line: Report pIC50, nothing else, for this compound: COCCN1CC2(C1)CN(c1cc(C(F)F)cc3cnc(NC4CCN(S(=O)(=O)C5CC5)CC4)nc13)C2
Response line: 5.70 to 6.30

Prompt line: Report pIC50, nothing else, for this compound: CC(C)(F)CN1CCC2(CC(c3cc(C(F)F)cc4cnc(NC5CCN(S(C)(=O)=O)CC5)nc34)C2)C1 (centres unmarked)
Response line: 5.70 to 6.30

Prompt line: Report pIC50, nothing else, for this compound: COCCN1CC2(CC(c3cc(C(F)F)cc4cnc(NC5CCN(S(C)(=O)=O)CC5)nc34)C2)C1
Response line: > 6.70

Prompt line: Report pIC50, nothing else, for this compound: O=S(=O)(N1CCC(Nc2ncc3cc(C(F)F)cc(N4CC5(CCNC5)C4)c3n2)CC1)C1(C(F)F)CC1
Response line: > 6.70

Prompt line: Report pIC50, nothing else, for this compound: CC(=O)N1CCC2(CCN(c3cccc4cnc(Nc5ccc(N6CCN(C)CC6)cc5)nc34)C2)C1 (centres unmarked)
Response line: < 5.70

Prompt line: Report pIC50, nothing else, for this compound: CS(=O)(=O)N1CCC(Nc2ncc3cccc(C4CC5(CNCCO5)C4)c3n2)CC1 (centres unmarked)
Response line: 5.70 to 6.30

Prompt line: Report pIC50, nothing else, for this compound: CS(=O)(=O)N1CCC(Nc2ncc3cccc(N4CCC5(CCOCC5)C4)c3n2)CC1
Response line: < 5.70

Prompt line: Report pIC50, nothing else, for this compound: O=S(=O)(CC1CCC1)N1CCC(Nc2ncc3cc(C(F)F)cc(N4CCC5(CNC5)C4)c3n2)CC1
Response line: 5.70 to 6.30

Prompt line: Report pIC50, nothing else, for this compound: CS(=O)(=O)N1CCC(Nc2ncc3cccc(N4CC(F)(F)C5(CNC5)C4)c3n2)CC1
Response line: 5.70 to 6.30

Prompt line: Report pIC50, nothing else, for this compound: CC(=O)N1CCC2(CCN(c3cc(C(F)F)cc4cnc(Nc5ccc(N6CCN(C)CC6)cc5)nc34)C2)C1 (centres unmarked)
Response line: 5.70 to 6.30

Prompt line: Report pIC50, nothing else, for this compound: CS(=O)(=O)N1CCC(Nc2ncc3cc(C(F)F)cc(C4CC5(CCN(CC(F)F)C5)C4)c3n2)CC1 (centres unmarked)
Response line: 5.70 to 6.30

Prompt line: Report pIC50, nothing else, for this compound: CC(=O)N1CCC2(CCN(c3cccc4cnc(Nc5ccc(N6CC7(COC7)C6)cn5)nc34)C2)C1 (centres unmarked)
Response line: < 5.70

Prompt line: Report pIC50, nothing else, for this compound: CCN1CC2(C1)CN(c1ccc(Nc3ncc4cccc(N5CC6(CCS6(=O)=O)C5)c4n3)nc1)C2
Response line: < 5.70
